I'd appreciate it if you could supply pEC50 values for the items below.
molecular target: T1, human SIRPγ (human, UniProt Q9P1W8 29-387); test: CELISA, CHO-K1 transfectants; extrapolated
T1 construct: on transfected CHO-K1 cells; also called hSIRPγ
T1 sequence (Q9P1W8 29-387 limits assumed): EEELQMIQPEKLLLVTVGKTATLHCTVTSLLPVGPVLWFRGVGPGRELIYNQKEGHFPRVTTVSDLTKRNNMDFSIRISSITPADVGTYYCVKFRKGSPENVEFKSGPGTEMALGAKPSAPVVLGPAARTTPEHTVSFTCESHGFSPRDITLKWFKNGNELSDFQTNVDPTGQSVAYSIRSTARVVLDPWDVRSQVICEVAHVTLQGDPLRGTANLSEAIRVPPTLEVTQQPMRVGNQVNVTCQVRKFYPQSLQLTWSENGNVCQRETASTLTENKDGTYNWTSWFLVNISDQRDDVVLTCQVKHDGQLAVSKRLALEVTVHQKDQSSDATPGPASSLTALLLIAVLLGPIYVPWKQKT
Hey, just a heads up that pEC50 is the negative log base 10 of the concentration in molar.

Entry hSIRPα.50A.H4L4 (antibody, human IgG4 S228P, kappa, V domains shown, human IgG4 S228P, kappa; also called hSIRPα.50H4L4) VH: EVQLQQSGAELVKPGASVKVSCKASGFTFTNYYIHWVRQRPGQGLEWMGWIYPGNVNTKYNEKFKAKATITADKSTSTAYMELSSLTSEDTAVYYCARPTIIATDFDVWGQGTTVTVSS VL: DIQMTQSPSSLSASVGDRVTITCKASQGVGTAVGWYQKKPGKVPKLLIYWASTRHTGVPDRFSGSGSGTDFTLTINGLQPEDVATYYCQQYSTYPFTFGGGTKLEIKR : reported pEC50 = ? 8.70

Query: pEC50; subject: hSIRPα.50A.H5L1 (antibody, human IgG4 S228P, kappa, V domains shown, human IgG4 S228P, kappa; also called hSIRPα.50H5L1) VH: EVQLVQSGAEVVKPGASVKVSCKASGFTFTNYYIHWVRQAPEQGLEWIGWIYPGNVNTKYNEKFKARVTMTADKSTSTAYMELSSLRSDDMAVYYCARPTIIATDFDVWGQGTTVTVSS VL: DIVLTQSPSFLSASVGDRVTITCKASQGVGTAVGWYQQKPGKAPKLLIYWASTRHTGVPDRFSGSGSGTEFTLTISSLQPEDFAAYYCQQYSTYPFTFGGGTKLEIKR 8.99

# pEC50 lookup, item hSIRPα.50A.H5L2 (antibody, human IgG4 S228P, kappa, V domains shown, human IgG4 S228P, kappa; also called hSIRPα.50H5L2) VH: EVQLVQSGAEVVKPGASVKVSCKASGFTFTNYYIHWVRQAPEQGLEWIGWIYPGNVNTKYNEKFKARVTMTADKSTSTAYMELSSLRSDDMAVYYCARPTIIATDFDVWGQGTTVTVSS VL: DIVMTQSPSSLSASVGDRVTITCKASQGVGTAVGWYQQKPGKAPKLLIYWASTRHTGVPDRFSGSGSGTDFTLTISNLQPEDFADYYCQQYSTYPFTFGGGTKVEIKR 9.09

Item under review: hSIRPα.50A.H4L3 (antibody, human IgG4 S228P, kappa, V domains shown, human IgG4 S228P, kappa; also called hSIRPα.50H4L3) VH: EVQLQQSGAELVKPGASVKVSCKASGFTFTNYYIHWVRQRPGQGLEWMGWIYPGNVNTKYNEKFKAKATITADKSTSTAYMELSSLTSEDTAVYYCARPTIIATDFDVWGQGTTVTVSS VL: ELVMTQSPSSLSASVGDRVTITCKASQGVGTAVGWYQQKPGKAPKLLIYWASTRHTGVPDRFSGSGSGTDFTLAISSLQPEDIADYYCQQYSTYPFTFGGGTKVEIKR . Reported pEC50? 8.80

Given the entry hSIRPα.50A.H3L3 (antibody, human IgG4 S228P, kappa, V domains shown, human IgG4 S228P, kappa; also called hSIRPα.50H3L3) VH: EVQLVQSGAEVVKPGASVMISCKASGFTFTNYYIHWVRQRPGQGLEWIGWIYPGNVNTKYNEKFKARVIMTADKSTSTVYMQLSSLTSEDTAVYYCARPTIIATDFDVWGQGTLVTVSS VL: ELVMTQSPSSLSASVGDRVTITCKASQGVGTAVGWYQQKPGKAPKLLIYWASTRHTGVPDRFSGSGSGTDFTLAISSLQPEDIADYYCQQYSTYPFTFGGGTKVEIKR , report its measured pEC50. 8.61
